Could you please report measured Potency for the items listed next?
- Assay name: Quantitative High-Throughput drug screen in 47 multiple myeloma cell lines against the NCATS MIPE library collection: SKMM1_PLB cell viability assay (AID 1919863); note: potency is the fitted concentration of half-maximal effect; nearly all actives have a fitted effect of over 35% in size
- Study conditions: SKMM1 myeloma viability, CellTiter-Glo ATP, 48 h
Inconclusive results are not listed. Activity calls are given as the source filed them. Calls come from the whole dose curve; as a rule, active = well fitted cell-killing curve with a large enough effect; inconclusive = small, poorly fitted or top-dose-only effect, or effect the other way; inactive = no such curve, though single readings can be large or run the other way.

// returns reported Potency for input COc1ccc(Nc2cc(-c3cnc(N)nc3)nc(N3CCOCC3)n2)cn1
235 nM (active)

Data request, read-out Potency, for CCN(CC)CCNC(=O)c1c(C)[nH]c(C=C2C(=O)Nc3ccc(F)cc32)c1C
27000 nM (active)

Any idea what Potency was measured for CNC(=O)Nc1ccc(-c2nc(N3CC4CCC(C3)O4)c3cnn(C4CCC5(CC4)OCCO5)c3n2)cc1 ?
16.6 nM (active)
